Entry source: ChEMBL document CHEMBL3407482

- assay-remarks: Antioxidant activity assessed as DPPH radical scavenging activity by spectrophotometry
- Format: physicochemical
endpoint-name: pIC50
Hey, just a heads up that pIC50 is the negative log base 10 of the concentration in molar.

What the record says about COc1ccc(/C=C/C(=O)/C=C/c2cc(OC)c(O)c(OC)c2)cc1OC : pIC50 is 4.87

What the record says about COc1ccc(/C=C/C(=O)/C=C/c2cc(OC)c(OC)c(OC)c2)cc1O : pIC50 is 4.46

What the record says about COc1ccc(/C=C/C(=O)/C=C/c2ccc(O)c(OC)c2)cc1O : pIC50 is 4.33

What the record says about COc1ccc(/C=C/C(=O)/C=C/c2ccc(OC)c(OC)c2)cc1O : pIC50 is 4.71

What the record says about COc1ccc(/C=C/C(=O)/C=C/c2ccc(OC)c(O)c2)cc1O : pIC50 is 4.04

What the record says about COc1ccc(O)c(/C=C/C(=O)/C=C/c2ccc(OC)c(OC)c2)c1 : pIC50 is 4.03

What the record says about COc1cc(/C=C/C(=O)/C=C/c2ccc(C)c(C)c2)ccc1O : pIC50 is 4.38

What the record says about COc1cc(/C=C/C(=O)/C=C/c2cc(OC)c(OC)c(OC)c2)cc(OC)c1O : pIC50 is 4.55

What the record says about CCOc1cc(/C=C/C(=O)/C=C/c2ccc(O)c(OC)c2)ccc1O : pIC50 is 4.50
